TARGET_SYSTEM: beta-amyloid 42 (Aβ42) (Homo sapiens)
Construct: Beta-amyloid 42 (Aβ42) was dissolved in dimethylsulfoxide (DMSO)
Sequence (P05067 672-713 limits assumed): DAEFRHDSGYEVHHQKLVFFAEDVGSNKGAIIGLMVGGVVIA
ASSAY_PROCEDURE: Inhibitory effect on the formation of beta-amyloid fibrils in vitro (ThT fluorescence assay)
Assay type: biochemical
CONDITION_DESCRIPTION: 10 μM compound; Aβ42 25 μM; experiment of Table 3; read-out: % Inhibition (10 μM)
Counter-ions that a name gives are not always drawn.
Everything with inhibition at 10 µM lower than 60% is False; everything else, including exactly 60%, is True.

COMPOUND: Cc1ccc2cc(C=Cc3ccc(N)cc3)oc2c1 [Compound 61, trifluoroacetate]
TARGET_SYSTEM: beta-amyloid 42 (Aβ42) (Homo sapiens)
GROUP: False

COMPOUND: CNc1ccc(C=Cc2cc3ccc(C)cc3o2)cc1 [Compound 62, trifluoroacetate]
TARGET_SYSTEM: beta-amyloid 42 (Aβ42) (Homo sapiens)
GROUP: False

COMPOUND: CNc1ccc(C=Cc2cc3cc(C)ccc3o2)cc1 [Compound 40, trifluoroacetate]
TARGET_SYSTEM: beta-amyloid 42 (Aβ42) (Homo sapiens)
GROUP: True

COMPOUND: CCN(CC)c1ccc(C=Cc2cc3cc(C)ccc3o2)cc1
TARGET_SYSTEM: beta-amyloid 42 (Aβ42) (Homo sapiens)
GROUP: False

COMPOUND: COc1ccc(C=Cc2cc3ccc(OC)cc3o2)cc1
TARGET_SYSTEM: beta-amyloid 42 (Aβ42) (Homo sapiens)
GROUP: False

Q. Answer whether inhibition at 10 µM of "CCN(CC)c1ccc(C=Cc2cc3ccc(OC)cc3o2)cc1" is greater than or equal to 60%.
A. True

Q. Answer whether inhibition at 10 µM of "CCN(CC)c1ccc(C=Cc2cc3ccccc3o2)cc1" is greater than or equal to 60%.
A. False

###

TARGET_SYSTEM: beta-amyloid 42 (Aβ42) (Homo sapiens)
Construct: Beta-amyloid 42 (Aβ42) was dissolved in dimethylsulfoxide (DMSO)
ASSAY_PROCEDURE: Inhibitory effect on the formation of beta-amyloid fibrils in vitro (ThT fluorescence assay)
Format: biochemical
CONDITION_DESCRIPTION: In vitro ThT analysis (Aβ42: 25 μM); experiment of Table 1
Counter-ions that a name gives are not always drawn.
ASSAY_READOUT: IC50 (nM)
Just the number please, in nM, no unit attached.

COMPOUND: CNc1ccc(C=Cc2cc3cc(O)ccc3o2)cc1 [Compound 19, hydrochloride]
ASSAY_READOUT: IC50
NUMERIC_VALUE: 2160
--
COMPOUND: CN(C)c1ccc(C=Cc2cc3cc(Br)ccc3o2)cc1
ASSAY_READOUT: IC50
NUMERIC_VALUE: 470
--
COMPOUND: Nc1ccc(C=Cc2cc3cc(O)ccc3o2)cc1 [Compound 18, hydrochloride]
ASSAY_READOUT: IC50
NUMERIC_VALUE: 2950
--
COMPOUND: CN(C)c1ccc(C=Cc2cc3ccc(Cl)cc3o2)cc1
ASSAY_READOUT: IC50
NUMERIC_VALUE: 3210
--
COMPOUND: COc1ccc2oc(C=Cc3ccc(N(C)C)c(OC)c3)cc2c1
ASSAY_READOUT: IC50
NUMERIC_VALUE: 156

Q. Look up and state reported IC50 for "COc1ccc2cc(C=Cc3ccc(N(C)C)c(OC)c3)oc2c1"
A. 528

Q. Look up and state reported IC50 for "CN(C)c1ccc(C=Cc2cc3ccc(Br)cc3o2)cc1"
A. 1340

Q. Look up and state reported IC50 for "CN(C)c1ccc(C=Cc2cc3cc(O)ccc3o2)cc1"
A. 163

Q. Look up and state reported IC50 for "CN(C)c1ccc(C=Cc2cc3ccc(F)cc3o2)cc1"
A. 2190

Q. Look up and state reported IC50 for "CN(C)c1ccc(C=Cc2cc3cc(Cl)ccc3o2)cc1"
A. 199

###

# Tmax per record follows
ASSAY_PROCEDURE: Pharmacokinetics test in rats (plasma)
Assay type: in vivo, SD rats
CONDITION_DESCRIPTION: SD, rat, plasma, 2.5 mg/kg, po

COMPOUND: CNc1ccc(C=Cc2cc3cc(OC)ccc3o2)cc1
ASSAY_READOUT: Tmax
RESULT: 1.33 h

Consider the additional compound presented here.
Q. Look up and state reported Tmax for "COc1ccc2cc(C=Cc3ccc(N(C)C)cc3)oc2c1"
A. 1.67 h

###

# IC50 per record follows
TARGET_SYSTEM: beta-amyloid 42 (Aβ42) (Homo sapiens)
Construct: Beta-amyloid 42 (Aβ42) was dissolved in dimethylsulfoxide (DMSO)
ASSAY_PROCEDURE: Inhibitory effect on the formation of beta-amyloid fibrils in vitro (ThT fluorescence assay)
Type: biochemical
CONDITION_DESCRIPTION: In vitro ThT analysis (Aβ42: 25 μM); experiment of Table 1
Just the number please, in nM, no unit attached.

COMPOUND: CN(C)c1ccc(C=Cc2cc3ccccc3o2)cc1 [Compound 1, 2-(4-dimethylaminostyryl)benzofuran]
ASSAY_READOUT: IC50
NUMERIC_VALUE: 2300

Q. Look up and state reported IC50 for CNc1ccc(C=Cc2cc3cc(OC)ccc3o2)cc1 [Compound 17]
A. 78

Q. Look up and state reported IC50 for Cc1ccc2oc(C=Cc3ccc(N(C)C)cc3)cc2c1 [Compound 4]
A. 128

Q. Look up and state reported IC50 for CN(C)c1ccc(C=Cc2cc3cc(F)ccc3o2)cc1 [Compound 5]
A. 1980

###

# Kp per record follows
ASSAY_PROCEDURE: Passage test through the blood-brain barrier in mice (brain tissue)
Assay type: in vivo, ICR mice
CONDITION_DESCRIPTION: ICR, mouse, brain; mice, 1.25 mg/kg, iv; read-out: AUCBrain/AUC Plasma
Experimental: 1) Test Animal and Administration of Test Compound Three 7 week-old ICR mice (weight: about 30 g) and three 8 week-old SD rats (weight: about 250 g) were used per test group. […] The mice and rats from which the blood sample was obtained were subjected to bloodletting, and then, brain tissue of the mice and rats was collected. […] The weight of the brain tissue was measured after the removal of adipose tissue and peripheral tissue. […] The sample was analyzed using LC/MSMS system under the following condition: […]
Give the figure by itself; no unit, no explanation.

MOLECULE: COc1ccc2cc(C=Cc3ccc(N(C)C)cc3)oc2c1 [Compound 9]
Kp: 12.1

Q. Look up and state reported Kp for CNc1ccc(C=Cc2cc3cc(OC)ccc3o2)cc1 [Compound 17]
A. 10.6

###

TARGET_SYSTEM: beta-amyloid 42 (Aβ42) (Homo sapiens)
Construct: Beta-amyloid 42 (Aβ42) was dissolved in dimethylsulfoxide (DMSO)
ASSAY_PROCEDURE: Inhibitory effect on the formation of beta-amyloid fibrils in vitro (ThT fluorescence assay)
Format: biochemical
CONDITION_DESCRIPTION: 10 μM compound; Aβ42 25 μM; experiment of Table 4; read-out: % Inhibition (10 μM)
Everything with inhibition at 10 µM lower than 80% is criterion not met; everything else, including exactly 80%, is criterion met.

Examples with answers:
COMPOUND: CCN(CC)c1ccc(C=Cc2cc3cc(Cl)ccc3o2)cc1
GROUP: criterion not met

COMPOUND: COc1ccc(C=Cc2cc3cc(I)ccc3o2)cc1
GROUP: criterion not met

COMPOUND: COc1ccc(C=Cc2cc3cc(I)ccc3o2)cc1OC
GROUP: criterion not met

Q. Answer whether inhibition at 10 µM of "Nc1ccc(C=Cc2cc3cc(Cl)ccc3o2)cc1" is greater than or equal to 80%.
A. criterion met

###

# Tmax per record follows
ASSAY_PROCEDURE: Passage test through the blood-brain barrier in rats (brain tissue)
Assay type: in vivo, SD rats
CONDITION_DESCRIPTION: SD, rat, 2.5 mg/kg, po, brain tissue
Just the number please, in h, no unit attached.

COMPOUND: CNc1ccc(C=Cc2cc3cc(OC)ccc3o2)cc1 [Compound 17]
Tmax (h): 1.67

Consider the additional compound presented here.
Q. Look up and state reported Tmax for COc1ccc2cc(C=Cc3ccc(N(C)C)cc3)oc2c1 [Compound 9]
A. 2

###

# Kp per record follows
ASSAY_PROCEDURE: Passage test through the blood-brain barrier in mice (brain tissue)
Type: in vivo, ICR mice
CONDITION_DESCRIPTION: ICR (mice), SD (rats), mouse, brain; mice and rats, Tables 8 and 9; read-out: passage ability through the blood-brain barrier compared with plasma

COMPOUND: COc1ccc2cc(C=Cc3ccc(N(C)C)cc3)oc2c1 [Compound 9]
Kp: ≥ 1

Consider the additional compound presented here.
Q. Look up and state reported Kp for CNc1ccc(C=Cc2cc3cc(OC)ccc3o2)cc1 [Compound 17]
A. ≥ 1

###

# melting point per record follows

// solved cases for melting point follow
COMPOUND: COc1ccc2oc(C=Cc3ccc(N(C)C)c(OC)c3)cc2c1
melting point: 226.5 to 227.5 °C
//
COMPOUND: Cc1ccc2oc(C=Cc3ccc(N(C)C)cc3)cc2c1
melting point: 188 to 189 °C
//
COMPOUND: CNc1ccc(C=Cc2cc3cc(OC)ccc3o2)cc1
melting point: 174 to 175 °C

Consider the additional molecule presented here.
Q. Look up and state reported melting point for "CN(C)c1ccc(C=Cc2cc3cc(O)ccc3o2)cc1"
A. 177 to 178 °C
